Protocol Summary: ATG_M_19_CIS: Attagene CIS-FACTORIAL HepG2 Assay for M19 Transcription Factor (Internal Marker) (AID 2282939)
Assay Setup: HepG2 Attagene CIS-FACTORIAL M19 internal marker reporter; actives raise or lower the signal
The source made the active and inactive calls. How the source made its calls: active means hit-call score of the fitted dose curve at least 0.9, where 1 is the maximum; inactive means score below 0.9.
Your reply should match one of these outcome classes. t = active, f = inactive

Please review the entries below; each comes with its answer.
CCCCNS(=O)(=O)c1ccccc1
f
CC(C)=CCCC(C)=CC#N
f
CCCC(C)C(=O)OCC (stereo not drawn)
f
C1CNCCN1
f
CCNc1nc(NC(C)(C)C)nc(OC)n1
f

Challenge: Dear colleague, could you share the recorded outcome for `O=C(Oc1ccccc1)c1ccccc1C(=O)Oc1ccccc1` when you have a moment?
Response given: f

###

Target Or System: Hypoxia-inducible factor 1-alpha (Homo sapiens)
Protocol Summary: ATG_HIF1a_CIS: Attagene CIS-FACTORIAL HepG2 Assay for human Hypoxia Inducible Factor 1 (HIF1A) (AID 2282951)
Assay Setup: HepG2 Attagene cis-factorial HIF1a reporter transcription; actives raise or lower the signal
Activity calls are given as the source filed them. How the source made its calls: active means hit-call score of the fitted dose curve at least 0.9, where 1 is the maximum; inactive means score below 0.9.
Your reply should match one of these outcome classes. True = active, False = inactive

Please review the entries below; each comes with its answer.
CCCC(CC)c1ccccc1 (stereo unspecified)
False
C[Si]1(C)O[Si](C)(C)O[Si](C)(C)O[Si](C)(C)O[Si](C)(C)O1
False
O=S(=O)(O)c1ccc(Nc2nc(Nc3ccc(C=Cc4ccc(Nc5nc(Nc6ccc(S(=O)(=O)O)cc6)nc(N(CCO)CCO)n5)cc4S(=O)(=O)O)c(S(=O)(=O)O)c3)nc(N(CCO)CCO)n2)cc1
False
C=CCNCC=C
True
Cc1cc(C)c(C=O)c(C)c1
False

Challenge: Dear colleague, could you share the recorded outcome for `O=C(Cl)c1ccc(C(=O)Cl)cc1` when you have a moment?
Response given: False

Challenge: Dear colleague, could you share the recorded outcome for `O=C1c2ccccc2C(=O)c2cc(S(=O)(=O)O)ccc21` when you have a moment?
Response given: False

Challenge: Dear colleague, could you share the recorded outcome for O=C1CCCCC1C1CCCCC1 (stereo unspecified) when you have a moment?
Response given: False

Challenge: Dear colleague, could you share the recorded outcome for `CCCCOCCOC(=O)COc1ccc(Cl)cc1Cl` when you have a moment?
Response given: False

Challenge: Dear colleague, could you share the recorded outcome for `C=C(C)OC(C)=O` when you have a moment?
Response given: False

Challenge: Dear colleague, could you share the recorded outcome for CCCC(C)C(=O)OCC (stereo unspecified) when you have a moment?
Response given: False

Challenge: Dear colleague, could you share the recorded outcome for `O=C(Nc1ccccc1)c1cc(Cl)ccc1O` when you have a moment?
Response given: False

Challenge: Dear colleague, could you share the recorded outcome for `Nc1ccc(O)c([N+](=O)[O-])c1` when you have a moment?
Response given: False

###

Protocol Summary: ATG_M_32_CIS: Attagene CIS-FACTORIAL HepG2 Assay for M32 Transcription Factor (Internal Marker) (AID 2282949);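 further: background control marker of the multiplexed CIS panel rather than a real target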
Assay Setup: HepG2 Attagene cis-factorial M32 reporter, mRNA; actives raise or lower the signal
Active and inactive are the calls of the source. The calls were made as follows: active = hit-call score of the fitted dose curve at least 0.9, where 1 is the maximum; inactive = score below 0.9.
Value Kind: outcome

CC(CC=O)CC(C)(C)C (stereo not drawn)
inactive
CCCCCCCC(=O)OCC(COC(=O)CCCCCCC)OC(=O)CCCCCCC
inactive
CC(=O)C(C)C
inactive

###

Protocol Summary: ATG_TA_CIS: Attagene CIS-FACTORIAL HepG2 Assay for human TA Basal Promoter (AID 2282964)
Assay Setup: HepG2 Attagene CIS-factorial TA basal promoter reporter; actives raise or lower the signal
The source made the active and inactive calls. The calls were made as follows: active = hit-call score of the fitted dose curve at least 0.9, where 1 is the maximum; inactive = score below 0.9.
Your reply should match one of these outcome classes. Y for active, N for inactive

C1CNCCN1
N
CCC(C)N (stereo not given)
N
CCOB(OCC)OCC
N
O=C(Oc1ccccc1)c1ccccc1C(=O)Oc1ccccc1
N

Challenge: Dear colleague, could you share the recorded outcome for `C=C1C[C@H]2[C@@H]3C=C(C)C4=CC(=O)CC[C@]4(C)[C@H]3CC[C@]2(C)[C@@]1(OC(C)=O)C(C)=O` when you have a moment?
Response given: Y

###

Read-out: Monocyte Chemoattractant Protein-1 (MCP1), CCL2 (gene 6347)
Protocol Summary: BSK_CASM3C_MCP1: BioMAP Diversity Plus: CASM3C Assay for Monocyte Chemoattractant Protein-1 (MCP1) Biomarker Activity (AID 2283046);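 further: MCP-1 level quantified by ELISA 24 h after dosing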
Assay Setup: primary human coronary artery smooth muscle cells; actives raise or lower the signal
Active and inactive are the calls of the source. How the source made its calls: active means hit-call score of the fitted dose curve at least 0.9, where 1 is the maximum; inactive means score below 0.9.
Your reply should match one of these outcome classes. YES = active, NO = inactive

Please review the entries below; each comes with its answer.
Cc1c(O)cccc1O
NO
CC/C=C\C/C=C\C/C=C\CCCCCCCC(=O)OC
YES
CCOC(=O)/C=C\C(=O)OCC
NO
CC(C)[N+](C)(CCOC(=O)C1c2ccccc2Oc2ccccc21)C(C)C
NO

Shift focus to the following entry.
Challenge: Dear colleague, could you share the recorded outcome for `CC=C(C)C=CC=C(C)C` when you have a moment?
Response given: NO

###

Protocol Summary: ATG_Ets_CIS: Attagene CIS-FACTORIAL HepG2 Assay for human Erythroblast Transformation Specific (ETS) (AID 2282941)
Assay Setup: HepG2 ETS cis-reporter transcription, actives raise or lower the signal
Calls of active or inactive are those of the source. Rule for the calls: active = hit-call score of the fitted dose curve at least 0.9, where 1 is the maximum; inactive = score below 0.9.
Your reply should match one of these outcome classes. yes for active, no for inactive

Please review the entries below; each comes with its answer.
CCc1cccc(CC)c1
no
CCCCCCCCCCCCCC(=O)OC(C)C
no
CCCCCCCC(=O)OCC
no
C=C(C)C(=O)OCC(O)COc1ccc(C(C)(C)c2ccc(OCC(O)COC(=O)C(=C)C)cc2)cc1 (centres undefined)
yes
CC(CCC(=O)O)(c1ccc(O)cc1)c1ccc(O)cc1
no

Challenge: Dear colleague, could you share the recorded outcome for `Clc1cc(Cl)c(Cl)c(Cl)c1Cl` when you have a moment?
Response given: no

Challenge: Dear colleague, could you share the recorded outcome for CC1C(C)(C)C2=C(C(=O)CCC2)C1(C)C (centres undefined) when you have a moment?
Response given: no

Challenge: Dear colleague, could you share the recorded outcome for `CC(C)CCCCCOC(=O)CS` when you have a moment?
Response given: no

Challenge: Dear colleague, could you share the recorded outcome for `N#CC1(N)CCCCC1` when you have a moment?
Response given: no

Challenge: Dear colleague, could you share the recorded outcome for `C[N+](C)(C)CCCNS(=O)(=O)C(F)(F)C(F)(F)C(F)(F)C(F)(F)C(F)(F)C(F)(F)C(F)(F)C(F)(F)F` when you have a moment?
Response given: no

Challenge: Dear colleague, could you share the recorded outcome for `CC(C)c1cc(C(C)C)cc(C(C)C)c1` when you have a moment?
Response given: yes

Challenge: Dear colleague, could you share the recorded outcome for CC(Cl)COP(=O)(OCC(C)Cl)OCC(C)Cl (centres undefined) when you have a moment?
Response given: no

Challenge: Dear colleague, could you share the recorded outcome for `CC=CC(=O)OCC(C)C` when you have a moment?
Response given: no

Challenge: Dear colleague, could you share the recorded outcome for `Nc1nc(N)nc(-c2ccccc2)n1` when you have a moment?
Response given: no

###

Protocol Summary: ACEA_ER_AUC_viability: ACEA Biosciences xCELLigence Real-Time Cell Analysis on Estrogen Receptor Agonism for Viability (AID 2283782);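 further: continuous compound exposure with impedance area under curve over 80 h; hit means loss of impedance signal meaning reduced cell growth or viability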
Method: ACEA_ER is a cell-based, single-readout assay that uses T47D, a human breast cell line, with measurements taken at 80 hours after chemical dosing in a 96-well plate, although TO2 (mc0.srcf) used a 384-well plate. Differences in plate size can be ignored given data normalization.ACEA_ER_AUC_viability is one of two assay component(s) measured or calculated from the ACEA_ER assay. […]
Results filed as inconclusive are left out. Activity calls are given as the source filed them. The calls were made as follows: active = hit-call score of the fitted dose curve at least 0.9, where 1 is the maximum; inconclusive = response in the unintended direction; inactive = score below 0.9.
Your reply should match one of these outcome classes. 1 (active), 0 (inactive)

Please review the entries below; each comes with its answer.
Nc1ccc(C(=O)OCCCOC(=O)c2ccc(N)cc2)cc1
0
CCN1CCCC1=O
0
CC(c1cc(C(C)(C)C)cc(C(C)(C)C)c1O)c1cc(C(C)(C)C)cc(C(C)(C)C)c1O
0

Challenge: Dear colleague, could you share the recorded outcome for CCC1COC(=O)O1 (stereo unspecified) when you have a moment?
Response given: 0

Challenge: Dear colleague, could you share the recorded outcome for `CCCCOC(=O)CCC(C)=O` when you have a moment?
Response given: 0

Challenge: Dear colleague, could you share the recorded outcome for `O=C(OCCc1ccccc1)c1ccccc1` when you have a moment?
Response given: 1

Challenge: Dear colleague, could you share the recorded outcome for `C1CNCCN1` when you have a moment?
Response given: 0

Challenge: Dear colleague, could you share the recorded outcome for `Clc1cc(Cl)c(Cl)c(Cl)c1Cl` when you have a moment?
Response given: 0

Challenge: Dear colleague, could you share the recorded outcome for `O=C(O)c1ccc2c(c1)C(=O)OC2=O` when you have a moment?
Response given: 0

###

Target Or System: Transcriptional activator Myb (Homo sapiens)
Protocol Summary: ATG_Myb_CIS: Attagene CIS-FACTORIAL HepG2 Assay for human Myeloblastosis (Myb) Proto-Oncogene Transcription Factor (AID 2282986)
Assay Setup: HepG2 Attagene CIS-FACTORIAL Myb reporter transcription; actives raise or lower the signal
Active and inactive are the calls of the source. The calls were made as follows: active = hit-call score of the fitted dose curve at least 0.9, where 1 is the maximum; inactive = score below 0.9.
Your reply should match one of these outcome classes. y (active), n (inactive)

C1CNCCN1
n
N=C1C=CC(=C(c2ccc(N)cc2)c2ccc(N)cc2)C=C1
y

Challenge: Dear colleague, could you share the recorded outcome for `O=C(Nc1ccccc1)c1cc(Cl)ccc1O` when you have a moment?
Response given: n

Challenge: Dear colleague, could you share the recorded outcome for `Cc1ccc([N+](=O)[O-])cc1N` when you have a moment?
Response given: n

Challenge: Dear colleague, could you share the recorded outcome for O=C(O)CC(C(=O)O)S(=O)(=O)O (centres undefined) when you have a moment?
Response given: n

Challenge: Dear colleague, could you share the recorded outcome for `CC(=O)OCCc1ccccc1` when you have a moment?
Response given: n

Challenge: Dear colleague, could you share the recorded outcome for `CCCc1ccc(O)c(OC)c1` when you have a moment?
Response given: n

Challenge: Dear colleague, could you share the recorded outcome for `CCCCNS(=O)(=O)c1ccc(C)cc1` when you have a moment?
Response given: n

Challenge: Dear colleague, could you share the recorded outcome for `CC(=O)c1ccc(S(=O)(=O)NC(=O)NC2CCCCC2)cc1` when you have a moment?
Response given: n

Challenge: Dear colleague, could you share the recorded outcome for `CCCCCCCC(=O)OCC` when you have a moment?
Response given: n

Challenge: Dear colleague, could you share the recorded outcome for CCC(C)(O)CCCC(C)C (centres undefined) when you have a moment?
Response given: n

Challenge: Dear colleague, could you share the recorded outcome for `COC(Cc1ccccc1)OC` when you have a moment?
Response given: n

Challenge: Dear colleague, could you share the recorded outcome for `Fc1ccc(Br)cc1` when you have a moment?
Response given: n

Challenge: Dear colleague, could you share the recorded outcome for `CC(=O)OC1CCCCC1` when you have a moment?
Response given: n

Challenge: Dear colleague, could you share the recorded outcome for `COc1cc(C)ccc1O` when you have a moment?
Response given: n

Challenge: Dear colleague, could you share the recorded outcome for `Nc1ccnc(=O)[nH]1` when you have a moment?
Response given: n

Challenge: Dear colleague, could you share the recorded outcome for `O=C1CCCN1C1CCCCC1` when you have a moment?
Response given: n

Challenge: Dear colleague, could you share the recorded outcome for `Clc1cccnc1` when you have a moment?
Response given: n

Challenge: Dear colleague, could you share the recorded outcome for `CCCCCCOC(=O)CCCCC(=O)OCCCCCC` when you have a moment?
Response given: n

Challenge: Dear colleague, could you share the recorded outcome for CC(C=O)c1ccccc1 (centres undefined) when you have a moment?
Response given: n

Challenge: Dear colleague, could you share the recorded outcome for `CC1=CC=C(C(C)C)CC1` when you have a moment?
Response given: n

Challenge: Dear colleague, could you share the recorded outcome for `CCCCNC(=S)NCCCC` when you have a moment?
Response given: n
